- EXPERIMENTAL_DETAILS: Caco-2 membrane permeability, improved method as used in the following Examples (96-well, 20 to 24 h preincubation)
- Assay type: in vitro ADME
- CONDITIONS: human, Caco-2, improved method, preincubation 20 to 24 hours; Papp, sample at 180 minutes; read-out: Caco-2
- Protocol: In the following Examples, membrane permeability was measured in accordance with the improved method established as described above. […] Each well was shaken at 5% CO2, 37° C., and 80 rpm, and 180 minutes after the initiation, the sample on the basal side was collected and the permeation amount was measured by LC/MS. The membrane permeability coefficient (Papp) was calculated from the permeation amount. […]
Positions of bridges follow the written chain, without caps; N, C: chain ends. Non-standard residues stand in square brackets, D forms with d. Residues, ends and D or L forms follow the SMILES beside them. *: point of attachment. Phe(4-CF3) = N[C@@H](Cc1ccc(C(F)(F)F)cc1)C(=O)O; NMePhe(4-Cl) = CN[C@@H](Cc1ccc(Cl)cc1)C(=O)O; NMeF = CN[C@@H](Cc1ccccc1)C(=O)O; NMeL = CN[C@@H](CC(C)C)C(=O)O; NMeA = CN[C@@H](C)C(=O)O; Piperidide = C1CCN(*)CC1; NPrGly = CCCNCC(=O)O; Sar = CNCC(=O)O; tBu = CC(C)(C)*
Each item that follows carries a reported Papp A→B at 180 min.
OBSERVABLE: Papp A→B at 180 min (×10⁻⁶ cm/s)

INSERT INTO results (compound, quantitative_readout) VALUES
  ('CCCN1CC(=O)N[C@@H]([C@@H](C)O)C(=O)N[C@H](C(=O)N2CCCCC2)CC(=O)N(C)[C@@H](CC(C)C)C(=O)N[C@@H](Cc2ccc(C(F)(F)F)cc2)C(=O)N(C)[C@@H](CC(C)C)C(=O)N(C)[C@@H](CC(C)C)C(=O)N[C@@H](COC(C)(C)C)C1=O [pd147] ([NMeL][Phe(4-CF3)][NMeL][NMeL]S(tBu)[NPrGly]TD-Piperidide; lactam N-8)', 1.9),
  ('CC(C)C[C@@H]1NC(=O)[C@H](Cc2ccc(Cl)cc2)N(C)C(=O)[C@H](CC(C)C)N(C)C(=O)[C@H](C(C)C)NC(=O)[C@H](C)N(C)C(=O)C[C@@H](C(=O)N2CCCCC2)NC(=O)[C@H](CC(C)C)N(C)C(=O)CN(C)C(=O)[C@H]([C@@H](C)O)NC(=O)[C@H](CC(C)C)N(C)C(=O)[C@H](Cc2ccccc2)N(C)C1=O [pd174] ([NMeA]V[NMeL][NMePhe(4-Cl)]L[NMeF][NMeL]T[Sar][NMeL]D-Piperidide; lactam N-11)', 1.3);
